test system: UO-31 renal; test: NCI tumour cell line growth inhibition, 48 h
Task for the reader: assign each of the following compounds its reported TGI.

**Q:** Hello, please tell me recorded TGI for this one: CC(C)N1C(C)[C@@H](c2ccccc2)O[P@@]1(=O)CC1=CCCCC1 (stereo partly specified)
**A:** > 100 µM

**Q:** Using known records, supply TGI for O=C(COC(=O)c1cccc2c(=O)c3ccccc3[nH]c12)Nc1ccc(Cl)cc1
**A:** > 100 µM

**Q:** Fill in TGI for record CCOC(=O)C1=C(O)C(=O)c2ccoc2C1=O
**A:** > 100 µM

**Q:** Read the entry CC(=O)c1ccc2c3c1[C@H]1O[C@H]1c1cccc(c1-3)[C@@H]1O[C@H]21 and write its reported TGI.
**A:** 3.41 µM

**Q:** Return TGI for the following compound: COc1c(-c2ccc3c(c2)OCO3)oc2cc(O)cc(O)c2c1=O
**A:** > 100 µM

**Q:** Give the value of TGI reported for the following: O=C1C(c2c(O)[nH]c3ccc(Cl)cc23)=Nc2ccccc21
**A:** 2.25 µM

**Q:** Look up TGI of O=C(CSC(c1ccccc1)c1ccccc1)N/N=C/c1ccccc1Cl and report it.
**A:** > 100 µM

**Q:** Given the compound CCOC(=O)c1csc(C(CSCc2ccc(OC)cc2)N2C(=O)c3ccccc3C2=O)n1 (stereo unspecified) , write its reported TGI.
**A:** > 100 µM

**Q:** Tell me measured TGI for CC(=O)NC1CC(C(C)(C)NC(C)=O)CC=C1C (stereo unspecified) please.
**A:** > 100 µM

**Q:** Report TGI, nothing else, for this compound: CO/C=C1\OC(=O)C=C1OC
**A:** > 100 µM

**Q:** Give TGI for COc1ccc(/C=C\c2cc(OC)c(OC)c(OC)c2)cc1OC(=O)CC(N)C(=O)O (stereo unspecified)
**A:** 58.6 µM

###

test system: CCRF-CEM leukemia; test: NCI tumour cell line growth inhibition, 48 h
Kindly supply the reported TGI values for the records listed here.

**Q:** Item CSC1(C(=O)O)C2CCC3C2CCC31 (stereo unspecified) : provide TGI
**A:** > 100 µM

**Q:** Tell me its TGI given COc1ccc2nc3n(c2c1)C(c1c(F)cccc1F)SC3 (stereo unspecified) as the entry.
**A:** > 100 µM

**Q:** Give a short answer stating reported TGI for c1ccc2c(c1)SP1Sc3ccccc3P21 (stereo unspecified) .
**A:** > 100 µM

**Q:** For O=c1cc(-c2ccccc2)oc2cc(OCCCCCN3CCOCC3)cc(O)c12 , write its TGI.
**A:** > 100 µM

**Q:** Identify the reported TGI for the following entry. O=C(O)/C(Cl)=C(Cl)/C=N/NC(=O)c1cc2ccccc2cc1O
**A:** 51.7 µM

**Q:** Respond only with TGI recorded for c1ccc(C2=NN=C3C(c4ccccc4)=Nc4ccccc4N3C2)cc1
**A:** 20.2 µM

**Q:** For the molecule COc1cc(NCCC(=O)O)c2ncccc2c1 , give its reported TGI.
**A:** > 100 µM

**Q:** Respond only with TGI recorded for C=C1C(=O)O[C@@H]2CC(CO)=C([C@@H](C)CCCO)[C@@H](OC(=O)/C(C)=C\C)[C@H]12
**A:** 10 µM

**Q:** Return TGI for the following molecule: Cc1ccc2c(=O)c(-c3nnc(NC4CCCCC4)s3)c[nH]c2n1
**A:** > 100 µM

**Q:** Read the entry Cc1ccc2c(n1)NC(=O)C(Cc1ccccc1)(N=[N+]=[N-])C2=O (stereo unspecified) and write its reported TGI.
**A:** > 100 µM

**Q:** Given O=C(Sc1n[nH]c(=O)[nH]c1=O)c1cccc2nc3ccccc3nc12 , respond with its TGI.
**A:** > 100 µM

###

test system: MDA-MB-435; experiment: NCI tumour cell line growth inhibition, 48 h
Exercise: state measured TGI for each of the compounds provided.
Kindly provide the numeric value in µM only, without the unit symbol.

**Q:** Tell me TGI reported for C[C@H]1COCCN1c1nc(-c2cnc(N)cc2C(F)F)nc(N2CCOCC2)n1
**A:** 5.27

**Q:** Answer with the recorded TGI for the compound listed here: Cc1cc2c3c([n+](C)c4ccc(F)cc4c3c1)-c1cc(F)ccc1N2C
**A:** 55

**Q:** Please supply the value of reported TGI for the item CN(C)CCNC(=O)c1cccc2c1Oc1cccc([N+](=O)[O-])c1O2
**A:** 32.6

**Q:** State its TGI for this compound: O=C(Cn1c(C(=O)/C=C/c2ccc(Cl)cc2)nc2ccccc21)c1ccc(Cl)cc1
**A:** 37.5

**Q:** Determine its reported TGI: CC(=O)c1c2c(cc3c1CC1(Cc4cc5c(cc4C1)C(=O)CCC5)C3)CCCC2 (centres undefined)
**A:** 11.4

**Q:** Answer with reported TGI of N#Cc1c(N)nc(SCc2ccccc2)c(C#N)c1-c1ccc(O)cc1
**A:** 25.7

###

tested on: HCT-15 colon; test: NCI tumour cell line growth inhibition, 48 h
measurement_label: TGI

**Q:** Give the value of TGI reported for the following: NNC(=O)c1cc([N+](=O)[O-])ccc1NC(=O)C12CC3CC(CC(C3)C1)C2
**A:** 3.42 µM

**Q:** Give reported TGI value for Cc1ccc(C)c(NC(=O)C(=O)C2C(=O)N(c3ccccc3)N=C2N)c1 (stereo unspecified)
**A:** > 100 µM

**Q:** Consider the molecule C=CCSC1=N/C(=C\c2ccc(OC)cc2)C(=O)N1CC=C . State its measured TGI.
**A:** > 100 µM

**Q:** Tell me its TGI given CCCCSc1nc(N)c2cn[nH]c2n1 as the entry.
**A:** > 100 µM

**Q:** State its TGI for this molecule: O=C1NC2C3CC(OCc4ccccc4)(OCc4ccccc4)C2OC3O1 (stereo unspecified)
**A:** > 50 µM

**Q:** Consider the molecule C#CCOc1cccc(Nc2ncnc3cc(NC(=O)C=C)ccc23)c1 and give its recorded TGI.
**A:** > 100 µM

**Q:** Fill in TGI for record CCC[CH2][Sn]([CH2]CCC)([O]C(=O)c1cc(F)ccc1F)[O]C(=O)c1cc(F)ccc1F
**A:** 2.44 µM

**Q:** Quickly give me recorded TGI for C=CCC(N[C@H](CO)c1ccccc1)c1ccccn1 (stereo partly specified)
**A:** > 100 µM

**Q:** Query TGI for COc1cc2c3c(n(CCN4CCOCC4)c(=O)c2cc1OC)-c1ccccc1C3=O
**A:** > 100 µM

**Q:** State its TGI for this molecule: O=c1[nH]nc(-c2ccccc2)n1-c1cccc([N+](=O)[O-])c1
**A:** > 100 µM

**Q:** State, in one line, measured TGI of CN(/N=C/C=N/N(C)C1=NCCCN1)C1=NCCCN1
**A:** > 100 µM

**Q:** Could you please provide reported TGI for O=C(Nc1ccc([N+](=O)[O-])cc1[N+](=O)[O-])C(=O)C(C(=O)c1ccc(Cl)c(Cl)c1)C1OC(=O)c2ccccc21 (stereo unspecified) ? Thanks!
**A:** 76.7 µM

**Q:** Given the molecule CC(C)N1C(C)[C@@H](c2ccccc2)O[P@@]1(=O)CC1=CCCCC1 (stereo partly specified) , write its reported TGI.
**A:** > 100 µM

**Q:** Supply recorded TGI for CC(=O)[CH-]C(=O)c1ccccc1.CC(=O)[CH-]C(=O)c1ccccc1.CC[C@H](/C=C/C(C)[C@H]1CCC2[C@@H]3CC=C4C[C@@H]([O-])CC[C@]4(C)C3CC[C@@]21C)C(C)C.CC[C@H](/C=C/C(C)[C@H]1CCC2[C@@H]3CC=C4C[C@@H]([O-])CC[C@]4(C)C3CC[C@@]21C)C(C)C.Cl.[Ti+4] (stereo partly specified) here.
**A:** > 25 µM

**Q:** Look up TGI of O=C(O)/C(Cl)=C(Cl)/C=N/NC(=O)c1cc2ccccc2cc1O and report it.
**A:** > 100 µM

**Q:** Read off the recorded TGI for Cc1cc2c3c([n+](C)c4ccc(F)cc4c3c1)-c1cc(F)ccc1N2C
**A:** > 100 µM

**Q:** Output measured TGI for this item: Nc1ccc(Cn2ccc3c4c(N)nc(N)nc4ccc32)cc1
**A:** 17.6 µM

**Q:** Read off the recorded TGI for Cn1cc(C2=C(c3cc[nH]c3)C(=O)NC2=O)c2ccccc21
**A:** > 25 µM

**Q:** Provide measured TGI value, entry: O=C1C(Cl)=C(Cl)C(=O)N1c1cccc(C(F)(F)F)c1
**A:** > 100 µM

**Q:** Specify TGI for c1ccc2c(c1)SP1Sc3ccccc3P21 (stereo unspecified) and stop.
**A:** > 100 µM

**Q:** Tell me TGI reported for CC(C)(O)CCc1cccc(C(=O)c2cnn(-c3ccc(F)cc3)c2N)c1
**A:** > 25 µM
